Catalogue of compounds with associated MIC
system: S. epidermidis IID 866; experiment: Antibacterial spectrum, MIC; format: cell-based; details: Staphylococcus epidermidis, IID866; 10^6 cells/ml; Gram +; standard strain
measure_name: MIC (µg/mL)

{"compound": "CC1COc2c(N3CCN(C)CC3)c(F)cc3c(=O)c(C(=O)O)cn1c23 (stereo not shown) [OFLX, ofloxacin, reference compound]", "assay_value": 0.39}
{"compound": "O=C(O)c1cn(C2CC2)c2cc(N3CCNCC3)c(F)cc2c1=O [CPFX, ciprofloxacin, reference compound]", "assay_value": 0.2}
{"compound": "O=C(O)c1cn(C2CC2)c2c(Br)c(N3CCNCC3)c(F)cc2c1=O", "assay_value": 0.2}
{"compound": "CC1CN(c2c(F)cc3c(=O)c(C(=O)O)cn(C4CC4)c3c2Br)CCN1.Cl (stereo not shown)", "assay_value": 0.2}

* * *

tested on: B. distasonis 8503; assay: Antibacterial spectrum, MIC; format: cell-based; details: Parabacteroides distasonis, 10^6 cells/ml, Gram -, standard strain
Measured MIC of individual entries

{"compound": "CC1CN(c2c(F)cc3c(=O)c(C(=O)O)cn(C4CC4)c3c2Br)CCN1.Cl (stereo not shown) [Exp. 18]", "MIC": "1.56 µg/mL"}
{"compound": "CC1COc2c(N3CCN(C)CC3)c(F)cc3c(=O)c(C(=O)O)cn1c23 (stereo not shown) [OFLX, ofloxacin, reference compound]", "MIC": "6.25 µg/mL"}
{"compound": "O=C(O)c1cn(C2CC2)c2c(Br)c(N3CCNCC3)c(F)cc2c1=O [Exp. 17]", "MIC": "1.56 µg/mL"}
{"compound": "O=C(O)c1cn(C2CC2)c2cc(N3CCNCC3)c(F)cc2c1=O [CPFX, ciprofloxacin, reference compound]", "MIC": "6.25 µg/mL"}

* * *

Read-out record for Veillonella parvula KYA 10790: MIC

{"molecule": "O=C(O)c1cn(C2CC2)c2c(Br)c(N3CCNCC3)c(F)cc2c1=O", "measurement_target": "Veillonella parvula KYA 10790", "MIC / µg/mL": 0.39}
{"molecule": "CC1COc2c(N3CCN(C)CC3)c(F)cc3c(=O)c(C(=O)O)cn1c23 (stereo not shown) [OFLX, ofloxacin, reference compound]", "measurement_target": "Veillonella parvula KYA 10790", "MIC / µg/mL": 0.78}
{"molecule": "CC1CN(c2c(F)cc3c(=O)c(C(=O)O)cn(C4CC4)c3c2Br)CCN1.Cl (stereo not shown)", "measurement_target": "Veillonella parvula KYA 10790", "MIC / µg/mL": 0.39}
{"molecule": "O=C(O)c1cn(C2CC2)c2cc(N3CCNCC3)c(F)cc2c1=O [CPFX, ciprofloxacin, reference compound]", "measurement_target": "Veillonella parvula KYA 10790", "MIC / µg/mL": 0.2}

* * *

test system: S. aureus IID 670 (Terajima); test: Antibacterial spectrum, MIC; assay type: cell-based; details: Staphylococcus aureus, IID670; 10^6 cells/ml; Gram +; standard strain
Reported MIC values for the following compounds.
measure_name: MIC (µg/mL)

{"compound": "O=C(O)c1cn(C2CC2)c2cc(N3CCNCC3)c(F)cc2c1=O [CPFX, ciprofloxacin, reference compound]", "assay_value": 0.2}
{"compound": "CC1CN(c2c(F)cc3c(=O)c(C(=O)O)cn(C4CC4)c3c2Br)CCN1.Cl (stereo not shown)", "assay_value": 0.2}
{"compound": "O=C(O)c1cn(C2CC2)c2c(Br)c(N3CCNCC3)c(F)cc2c1=O", "assay_value": 0.2}
{"compound": "CC1COc2c(N3CCN(C)CC3)c(F)cc3c(=O)c(C(=O)O)cn1c23 (stereo not shown) [OFLX, ofloxacin, reference compound]", "assay_value": 0.39}

# credit: patent US4826982A
